# measurementDescription: duplex melting temperature (HRM, EvaGreen); higher = more stable duplex
# details: duplex concentration 10 µM; backbone: PS-PS (both strands fully phosphorothioate)
assayMetric: duplex melting temperature (°C)
Only the number, expressed in °C, is required.

> print(dat)
        polymersequence  measurednumber
1     ACTCGCTCTACCTTAAT            54.7
2  TGTAAGACTTCTGCCAGAAA            58.2
3            GGACGGCGTT            50.8
4       TACTTCCAACGTAGG            49.7
5      GGTTGCGGTGGCCAAC            53.7
6     GCAGGAGCCGCGACCTG            69.3

Query `ACTGTATCGCCCTA` yields duplex melting temperature of 54.5

Query `AACGAATGTCAGCAATT` yields duplex melting temperature of 54.3

Query `CGGTGCTTTTGGTAGC` yields duplex melting temperature of 55.9

Query `TAATTATACGAGTAGTTTCTGTCCTG` yields duplex melting temperature of 59.2
